B1: tRNA (parent)
chain: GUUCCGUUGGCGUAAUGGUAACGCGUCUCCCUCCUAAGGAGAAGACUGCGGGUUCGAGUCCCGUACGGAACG

- Variants of: B1
- Method description: yeast fitness relative to wild type (ratio to wild type); higher = fitter; tRNA-Arg(CCU), competitive growth, 37 C, YPD
Fewer inactive variants are shown than the library holds.
Quantity name: yeast fitness
One number for each entry.

Query: What value of measured yeast fitness is listed for GUCCCGUUGGAGUAAUGGUAACGUGUCUCCCUCCUAAGGAGGAGACUGCGGGUUCGAGUCCCGUACGGAACG [U3C C11A C24U A42G] ?
Reply: 0.638

Query: // query: GUUCCGUUGGCGUUAUGGUAACGCGUCUGCCUCCUAAGGAGAAGACUGCGGGUUCGAGUCCCGUACGGAACG [A14U C29G]
Reply: 0.692

Query: // query: GUUCCGUUGGCGUGAUGGUAACGCGUCUCCCUCCUAAGGAGAAGACUGCGGCUUCGAGUCCCGUACGGAACG [A14G G52C]
Reply: 0.577

Working through the 4 variants below one at a time, give yeast fitness for each.
1. GUCCCGUUGGCGUAAUGGUAACGCGUCUCCCUCCUAAGGAGAAGGCUGCGGGUUCGAGUCCCGUACGGAACG [U3C A45G]
2. GUUCCGUUGGCGUAAUGGUAACGCGUCUCCCUCCUAAGGCGAAGACUGCGGGUUCGAGUCCCGUAUGGAACG [A40C C66U]
3. GUUCCGUUGGCGUAAUGGUAACGCGUCUCACUCCUAAGGAGAAGACUGCGGGUUCGAGUCCCGUACCGAACG [C30A G67C]
4. GAUCGGUUGGCGUAAUGGUAACGCGUCUCCCUCCUAAGGGGAAGACUGCGGGUUCGAGUCCCGUACGGAACG [U2A C5G A40G]

Reply:
[0.903, 0.895, 0.841, 0.564]

Working through the 3 variants below one at a time, give yeast fitness for each.
1. GUUCGGUUGGCGUAAUGGUAACGCGUCUCCCACCUAAGGAGAAGACUGCGGGUUCGAGUCCCGUACGGAACG [C5G U32A]
2. GUUCCGUUGGCGUAAUGGUAACGCGUCUCCCCCCUAAGGAGAAGACUGCGGGUUCGAGUCCCGUAAGGAACG [U32C C66A]
3. GUUCCGUUGGCGUAAUGGUAACGCGUCUCCCUCCUAAGGAGAAGACUGCGGGUUCGAGUACCGUGCGGAACG [C60A A65G]

Reply:
0.678
0.702
0.573
